Molecular target: CDC7/DBF4 (Cell division cycle 7-related protein kinase/Activator of S phase kinase) (Homo sapiens)
Sequence (Q9UBU7 whole entry): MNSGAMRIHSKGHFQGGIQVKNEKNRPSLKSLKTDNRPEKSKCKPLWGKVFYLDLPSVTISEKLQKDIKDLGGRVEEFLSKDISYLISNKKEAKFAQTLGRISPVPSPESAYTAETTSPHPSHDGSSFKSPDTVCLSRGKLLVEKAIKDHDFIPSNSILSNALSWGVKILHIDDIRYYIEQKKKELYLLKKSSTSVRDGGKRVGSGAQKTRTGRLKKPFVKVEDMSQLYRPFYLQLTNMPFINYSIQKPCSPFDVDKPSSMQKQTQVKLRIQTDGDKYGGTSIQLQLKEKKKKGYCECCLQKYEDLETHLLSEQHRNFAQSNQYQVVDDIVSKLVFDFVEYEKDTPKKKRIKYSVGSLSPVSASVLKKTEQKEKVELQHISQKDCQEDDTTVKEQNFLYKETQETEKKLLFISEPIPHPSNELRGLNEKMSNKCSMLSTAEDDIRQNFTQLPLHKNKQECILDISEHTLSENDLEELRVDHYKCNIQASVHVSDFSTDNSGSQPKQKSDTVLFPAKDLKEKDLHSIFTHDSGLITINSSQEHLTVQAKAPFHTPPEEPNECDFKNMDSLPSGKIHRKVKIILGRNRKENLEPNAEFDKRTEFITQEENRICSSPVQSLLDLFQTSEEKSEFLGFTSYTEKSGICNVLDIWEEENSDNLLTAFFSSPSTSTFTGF
Sequence (O00311 whole entry): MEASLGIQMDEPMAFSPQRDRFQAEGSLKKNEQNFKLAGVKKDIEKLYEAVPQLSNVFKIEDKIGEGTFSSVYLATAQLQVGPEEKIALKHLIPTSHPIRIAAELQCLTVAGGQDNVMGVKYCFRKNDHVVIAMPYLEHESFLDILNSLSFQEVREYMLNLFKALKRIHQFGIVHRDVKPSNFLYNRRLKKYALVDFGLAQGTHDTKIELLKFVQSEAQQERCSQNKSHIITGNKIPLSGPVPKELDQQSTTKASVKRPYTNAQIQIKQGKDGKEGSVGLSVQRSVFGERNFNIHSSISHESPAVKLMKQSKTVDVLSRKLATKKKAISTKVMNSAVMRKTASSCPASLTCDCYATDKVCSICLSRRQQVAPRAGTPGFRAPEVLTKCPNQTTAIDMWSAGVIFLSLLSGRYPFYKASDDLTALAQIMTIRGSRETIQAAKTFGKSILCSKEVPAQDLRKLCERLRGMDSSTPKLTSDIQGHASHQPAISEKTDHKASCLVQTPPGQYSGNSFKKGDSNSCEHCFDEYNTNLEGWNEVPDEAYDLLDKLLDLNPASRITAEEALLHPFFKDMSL
Assay: Inhibition of Cdc7/Dbf4 (unknown origin)-mediated phosphorylation of MCM2 by protein-A luminescent proximity homogenous assay
Type: protein-complex assay
assayMetric: IC50 (nM)

Example results:
NC(=O)c1sc(-c2ccncc2)nc1O | 115
NC(=O)c1sc(-c2ccnc(N)n2)nc1-c1cc(F)ccc1F | 32.8
c1ccc(-c2nc(-c3ccncc3)sc2-c2nnco2)cc1 | 3870
CCOC(=O)c1sc(-c2ccnc(N)n2)nc1O | 41.5

P = O=C(NO)c1sc(-c2ccncc2)nc1-c1ccccc1
Q = CCOC(=O)c1sc(-c2ccncc2)nc1-c1ccccc1O
R = CCOC(=O)c1sc(-c2cccnc2)nc1O
S = CCOC(=O)c1sc(-c2ccncc2)nc1-c1cccc(Cl)c1Cl
Arrange these compounds by their IC50, starting with the largest number. // ordering of labels required in reply
R, Q, P, S
